Assay: chemical genetic growth profiling, strain panel (AID 1159580);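 note: tested at 20 µM; growth read once vehicle control cultures reached saturation at 30 °C; 1 = growth at the plate median or of vehicle wells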
Settings: S. cerevisiae deletion strains, growth OD, locus YHR027C, strain rpn1
The whole screen tested about 5,500 compounds, of which about 2,000 (36%) were called active. Roughly 18% stayed inconclusive and do not appear here. Cut-off read from the data, not from the text of the source: active = normalized growth mostly below about 0.91 (no sharp cut-off); inconclusive = no clear call, values can overlap the other calls; inactive = mostly above about 0.92. Some of the results follow.
Output constraint: value belongs to 1 (yes) for active, 0 (no) for inactive

Task item: Could you check what this test reported for `Cc1ccsc1/C=C/C1=NCCCN1C` ?
Reply: 0 (no)

Task item: Could you check what this test reported for `CN/C(=C\[N+](=O)[O-])NCCSCc1ccc(CN(C)C)o1` ?
Reply: 0 (no)

Task item: Could you check what this test reported for `CCCCC1=NC2(CCCC2)C(=O)N1Cc1ccc(-c2ccccc2-c2nn[nH]n2)cc1` ?
Reply: 0 (no)

Task item: Could you check what this test reported for `Nc1ccc(C(=O)NCC(=O)O)cc1` ?
Reply: 0 (no)

Task item: Could you check what this test reported for NC(=NCCC[C@H](N)C(=O)O)NC(CCC(=O)O)C(=O)O (some centres not stated) ?
Reply: 0 (no)

Task item: Could you check what this test reported for CC1(C)CCCC2(C)C3C1[C@@H](O)C2(C)C[C@H]3O (some centres not stated) ?
Reply: 0 (no)

Task item: Could you check what this test reported for `O=C(O)/C=C/C=C/c1ccccc1` ?
Reply: 1 (yes)

* * *

Assay: chemical genetic growth profiling, strain panel (AID 1159580)
Details: S. cerevisiae deletion strains, growth OD, locus YPL240C, strain hsp82, stronger effect = lower value
Hit rate of the full screen: of about 5,500 compounds, about 2,000 (36%) were called active. Another 18% or so got no clear call; they are omitted. The list shows a part of the results.
assay_metric: normalized growth
Lab note: write the figure by itself, no unit.

Task item: # query: normalized growth of entry CC(C)NCC(O)c1ccc(O)c(O)c1 (configuration not stated)
Reply: 0.976

Task item: # query: normalized growth of entry `Oc1c(I)cc(I)c2cccnc12`
Reply: 0.0764

Task item: # query: normalized growth of entry CC1(C)C(C(Cl)Cl)C2(Cl)C(Cl)C(Cl)C1(Cl)C2(Cl)Cl (configuration not stated)
Reply: 0.982

Task item: # query: normalized growth of entry `O=[N+]([O-])c1ccc(O)c([N+](=O)[O-])c1`
Reply: 0.813

Task item: # query: normalized growth of entry `Cc1ccsc1/C=C/C1=NCCCN1C`
Reply: 0.988

Task item: # query: normalized growth of entry O=C(O)CCCCC1CCSS1 (configuration not stated)
Reply: 0.97

Task item: # query: normalized growth of entry `CCN(CC)CCOc1ccc(/C(=C(\Cl)c2ccccc2)c2ccccc2)cc1`
Reply: 0.0981

Task item: # query: normalized growth of entry `CNC[C@@H](O)c1ccc(O)c(O)c1`
Reply: 1.01

Task item: # query: normalized growth of entry `CC(=O)Nc1cc([As](=O)(O)O)ccc1O`
Reply: 0.998

Task item: # query: normalized growth of entry O=C1C=CC2=C3c4cc(O)c(O)cc4CC3(O)COC2=C1O (configuration not stated)
Reply: 1.03

Task item: # query: normalized growth of entry `Nc1ccc(S(=O)(=O)Nc2ccc(Cl)nn2)cc1`
Reply: 0.978

Task item: # query: normalized growth of entry `Nc1ncn([C@@H]2O[C@H](CO)[C@@H](O)[C@H]2O)c(=O)n1`
Reply: 0.986

Task item: # query: normalized growth of entry CCCC1O[C@@H]2CC3C4CCC5=CC(=O)C=CC5(C)C4[C@@H](O)CC3(C)[C@]2(C(=O)CO)O1 (some centres not stated)
Reply: 0.995

Task item: # query: normalized growth of entry C1CCN2CC3CC(CN4CCCCC34)C2C1 (configuration not stated)
Reply: 1.03

Task item: # query: normalized growth of entry C=CCC1(C(C)CCC)C(=O)N=C(S)NC1=O (configuration not stated)
Reply: 0.97

Task item: # query: normalized growth of entry CCCC(C)C1(CC)C(=O)NC(=O)NC1=O (configuration not stated)
Reply: 1.02

Task item: # query: normalized growth of entry CCC(Cc1c(I)cc(I)c(N)c1I)C(=O)O (configuration not stated)
Reply: 0.939

Task item: # query: normalized growth of entry `COc1cc2c(c(OC)c1OC)-c1ccc(OC)c(=O)cc1[C@@H](NC(C)=O)CC2`
Reply: 1

Task item: # query: normalized growth of entry `NC[C@H](O)c1ccc(O)c(O)c1`
Reply: 0.994

Task item: # query: normalized growth of entry COC(=O)C[C@H]1C(C)(C)C(=O)[C@@H]2CC3=C4CC(=O)O[C@@H](c5ccoc5)[C@]4(C)CCC3[C@@]1(C)C2=O (some centres not stated)
Reply: 0.998

Task item: # query: normalized growth of entry `COc1cc(C(=O)NCc2ccc(OCCN(C)C)cc2)cc(OC)c1OC`
Reply: 0.995

Task item: # query: normalized growth of entry `CCOP(=S)(OCC)SCn1c(=O)oc2cc(Cl)ccc21`
Reply: 0.948

* * *

Experiment: chemical genetic growth profiling, strain panel (AID 1159580);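 note: tested at 20 µM; growth read once vehicle control cultures reached saturation at 30 °C; 1 = growth at the plate median or of vehicle wells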
Conditions: S. cerevisiae deletion strains, growth OD, locus YJL095W, strain BCK1
In all, about 5,500 compounds went through this assay and about 2,000 (36%) were called active. About 18% were inconclusive and are not listed. Rule as the data show it: active = normalized growth mostly below about 0.91 (no sharp cut-off); inconclusive = no clear call, values can overlap the other calls; inactive = mostly above about 0.92. The list shows a part of the results.
Output constraint: value belongs to active, inactive

Task item: Could you check what this test reported for `CC(C)=CCC/C(C)=C/CC/C(C)=C/CO` ?
Reply: active

Task item: Could you check what this test reported for `CC(C)=CCC/C(C)=C/CC/C(C)=C/CC/C(C)=C/CO` ?
Reply: inactive

Task item: Could you check what this test reported for `O=C(c1ccc2ccccc2c1)N1CCN(c2ccnc3cc(Cl)ccc23)CC1` ?
Reply: inactive

Task item: Could you check what this test reported for `FC(F)(F)c1cccc(NC(=S)Nc2csc(C(F)(F)F)c2-c2ccccc2)c1` ?
Reply: inactive

Task item: Could you check what this test reported for `CCC[C@H]1CC2=C(C[C@@H](CC)CC3=C1C(=O)OC3=O)C(=O)OC2=O` ?
Reply: inactive

Task item: Could you check what this test reported for `COc1cc2c(c(OC)c1OC)-c1ccc(O)c(=O)cc1[C@@H](NC(C)=O)CC2` ?
Reply: active

Task item: Could you check what this test reported for `C=C[C@](C)(O)CCC=C(C)C` ?
Reply: inactive

Task item: Could you check what this test reported for `Cc1occc(=O)c1/C=C/O` ?
Reply: inactive

Task item: Could you check what this test reported for `Cc1c2c(=O)[nH]ncc2c(-c2ccccc2)n1-c1ccc([N+](=O)[O-])cc1` ?
Reply: inactive

Task item: Could you check what this test reported for `Nc1nc2ncc(C(=O)O)nc2c(=O)[nH]1` ?
Reply: inactive

Task item: Could you check what this test reported for `CC[N+](CC)(CC(=O)Nc1c(C)cccc1C)Cc1ccccc1` ?
Reply: inactive

* * *

Assay: chemical genetic growth profiling, strain panel (AID 1159580);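 note: tested at 20 µM; growth read once vehicle control cultures reached saturation at 30 °C; 1 = growth at the plate median or of vehicle wells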
Conditions: S. cerevisiae deletion strains, growth OD, locus YDR137W, strain rgp1
The campaign covered roughly 5,500 compounds. About 2,000 (36%) were called active. Not shown: some 18% with an inconclusive outcome. No stated cut-off is given here; in the data, active means normalized growth mostly below about 0.91 (no sharp cut-off); inconclusive means no clear call, values can overlap the other calls; inactive means mostly above about 0.92. The list shows a part of the results.
Output constraint: value belongs to 1 = active, -1 = inactive

Task item: Could you check what this test reported for `O[N+]1=CC=CCC1=S.On1ccccc1=S.[Zn]` ?
Reply: 1

Task item: Could you check what this test reported for `C/C=C/c1ccc2c(c1)OCO2` ?
Reply: -1

Task item: Could you check what this test reported for CN(C)CCOC(C)(c1ccccc1)c1ccccn1 (configuration not stated) ?
Reply: -1

Task item: Could you check what this test reported for `O=C(O)c1ccccc1Nc1cccc(C(F)(F)F)c1` ?
Reply: 1

Task item: Could you check what this test reported for `COc1ccc(C(Cl)=C(c2ccc(OC)cc2)c2ccc(OC)cc2)cc1` ?
Reply: -1

Task item: Could you check what this test reported for `COc1cccc(/C=C/C(=O)O)c1C(C)C` ?
Reply: -1

Task item: Could you check what this test reported for `CC(=O)/C(=C\c1ccccc1)CC(=O)O` ?
Reply: -1

* * *

Assignment: determine reported normalized growth for the given molecules.
Experiment: chemical genetic growth profiling, strain panel (AID 1159580);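 note: tested at 20 µM; growth read once vehicle control cultures reached saturation at 30 °C; 1 = growth at the plate median or of vehicle wells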
Conditions: S. cerevisiae deletion strains, growth OD, locus YDR001C, strain nth1, stronger effect = lower value
In all, about 5,500 compounds went through this assay and about 2,000 (36%) were called active. About 18% were inconclusive and are not listed. This is one part of the list.
Lab note: write the figure by itself, no unit.

Task item: # query: normalized growth of entry `Nc1ccc(C(=O)NCC(=O)O)cc1`
Reply: 1.01

Task item: # query: normalized growth of entry `C1CCN2C[C@@H]3C[C@H](CN4CCCC[C@@H]34)[C@H]2C1`
Reply: 1.01

Task item: # query: normalized growth of entry `CCCCC1=NC2(CCCC2)C(=O)N1Cc1ccc(-c2ccccc2-c2nn[nH]n2)cc1`
Reply: 1

Task item: # query: normalized growth of entry C=CC(C)(O)CC/C=C(\C)CCC=C(C)C (configuration not stated)
Reply: 0.98

Task item: # query: normalized growth of entry `COc1cccc(/C=C/C(=O)O)c1C(C)C`
Reply: 0.983

Task item: # query: normalized growth of entry `CC(=O)/C(=C\c1ccccc1)CC(=O)O`
Reply: 0.992

Task item: # query: normalized growth of entry `CN/C(=C\[N+](=O)[O-])NCCSCc1ccc(CN(C)C)o1`
Reply: 0.982

Task item: # query: normalized growth of entry C1CCN2CC3CC(CN4CCCCC34)C2C1 (configuration not stated)
Reply: 1.02

Task item: # query: normalized growth of entry `Nc1ccc(S(=O)(=O)Nc2ccc(Cl)nn2)cc1`
Reply: 0.987

Task item: # query: normalized growth of entry CN1C(CC(=O)c2ccccc2)CCCC1CC(O)c1ccccc1 (configuration not stated)
Reply: 0.979

Task item: # query: normalized growth of entry `CC(=O)Nc1ccc(S(=O)(=O)c2ccc(NC(C)=O)cc2)cc1`
Reply: 1.02

Task item: # query: normalized growth of entry COc1ccccc1OCCNCC(O)COc1cccc2[nH]c3ccccc3c12 (configuration not stated)
Reply: 1.01

These data points were gathered from PubChem BioAssay AID1159580.
